# System: bovine serum albumin (BSA) (Bos taurus)
# Construct: gene ALB; native commercial protein (Sigma-Aldrich), untagged mature serum albumin
# Sequence (P02769 25-607): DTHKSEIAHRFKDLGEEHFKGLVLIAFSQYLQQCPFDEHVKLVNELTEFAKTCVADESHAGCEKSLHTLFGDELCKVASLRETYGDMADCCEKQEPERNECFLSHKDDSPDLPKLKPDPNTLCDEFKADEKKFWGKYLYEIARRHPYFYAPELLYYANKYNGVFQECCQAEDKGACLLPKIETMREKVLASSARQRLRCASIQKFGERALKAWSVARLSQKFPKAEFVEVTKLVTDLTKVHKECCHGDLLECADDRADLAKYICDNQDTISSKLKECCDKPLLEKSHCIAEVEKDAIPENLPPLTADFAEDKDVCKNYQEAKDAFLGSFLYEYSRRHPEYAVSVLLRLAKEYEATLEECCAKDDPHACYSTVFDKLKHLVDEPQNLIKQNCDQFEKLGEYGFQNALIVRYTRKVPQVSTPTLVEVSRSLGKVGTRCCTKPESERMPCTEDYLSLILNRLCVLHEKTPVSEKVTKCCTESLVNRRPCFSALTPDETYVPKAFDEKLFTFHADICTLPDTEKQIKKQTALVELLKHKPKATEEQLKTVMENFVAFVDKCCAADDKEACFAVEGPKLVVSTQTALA
# Protocol Details: intrinsic Trp fluorescence quenching, excitation […] nm
# Assay type: binding
# Recorded Conditions: 297 K, pH 7.4, phosphate buffer, 1.0 μM protein, no site marker; double-log
Each entry below carries its reported Binding Parameters / Kb × 10^4 [L.mol^-1].
Measure: Binding Parameters / Kb × 10^4 [L.mol^-1]

>>> result("O=C1c2ccccc2C(=O)N1CN1CCN(c2ccccc2)CC1")
"1.89 × 10^4 L·mol^−1"
>>> result("O=C1c2ccccc2C(=O)N1CN1CCN(c2cccc(C(F)(F)F)c2)CC1")
"43.61 × 10^4 L·mol^−1"
>>> result("O=C1c2ccccc2C(=O)N1CN1CCN(C(c2ccccc2)c2ccccc2)CC1")
"11.72 × 10^4 L·mol^−1"
>>> result("COc1ccccc1N1CCN(CN2C(=O)c3ccccc3C2=O)CC1")
"2.01 × 10^4 L·mol^−1"

* * *

# System: α1-acid glycoprotein (AAG); orosomucoid
# Construct: gene ORM1; native commercial plasma glycoprotein (Sigma-Aldrich); ORM1 is the main plasma form
# Protocol Details: intrinsic Trp fluorescence quenching, excitation […] nm
# Format: binding
# Recorded Conditions: 297 K, pH 7.4, phosphate buffer, 1.0 μM protein; double-log
Each entry below carries its reported Binding Parameters / Kb × 10^3 [L.mol^-1].
Measure: Binding Parameters / Kb × 10^3 [L.mol^-1]

>>> result("COc1ccccc1N1CCN(CN2C(=O)c3ccccc3C2=O)CC1 [B, compound B]")
"1.86 × 10^3 L·mol^−1"
>>> result("O=C1c2ccccc2C(=O)N1CN1CCN(c2cccc(C(F)(F)F)c2)CC1 [C, compound C]")
"1.48 × 10^3 L·mol^−1"
>>> result("O=C1c2ccccc2C(=O)N1CN1CCN(c2ccccc2)CC1 [A, compound A]")
"4.27 × 10^3 L·mol^−1"
>>> result("O=C1c2ccccc2C(=O)N1CN1CCN(C(c2ccccc2)c2ccccc2)CC1 [D, compound D]")
"2.09 × 10^3 L·mol^−1"

Numbers sourced from paper PMC10051393.
